Test summary: Lipophilicity, logD of the compound at pH 7.4
Format: physicochemical
Recorded conditions: buffer
In this section, each of the molecules is paired with its reported logD.
Measurement label: logD

- C[C@H]1CN(S(=O)(=O)c2ccc3c(c2)CCO3)C[C@@H]1C(=O)Nc1ccc2scnc2c1: 2.94
- Cc1ccc(S(=O)(=O)N2CC[C@@H](C(=O)Nc3ccc4scnc4c3)C2)cn1: 1.85
- Cc1nn(C)cc1S(=O)(=O)N1CC[C@@H](C(=O)Nc2ccc3scnc3c2)C1: 1.62
- Cn1cc(S(=O)(=O)N2CC[C@@H](C(=O)Nc3ccc4scnc4c3)C2)c(C(F)(F)F)n1: 2.62
- O=C(Nc1ccc2scnc2c1)C12CC1CN(S(=O)(=O)c1ccc3c(c1)CCO3)C2 (racemic): 2.88
- O=C(Nc1ccc2scnc2c1)[C@@H]1CCN(S(=O)(=O)c2ccc3ncsc3c2)C1: 2.04
- O=C(Nc1ccc2scnc2c1)[C@@H]1CCN(S(=O)(=O)c2ccc3c(c2)CCO3)C1: 2.53
